Attribution: patent US6790971B1

- assayTarget: Glucocorticoid Receptor of Rat Thymus (Rattus norvegicus, UniProt P06536)
- Construct: The thymuses were removed and homogenized at 0° C; from tissue; host or cells: thymus cytosol (105,000 g supernatant) of adrenalectomised male Sprague-Dawley rats
- Sequence (P06536 whole entry): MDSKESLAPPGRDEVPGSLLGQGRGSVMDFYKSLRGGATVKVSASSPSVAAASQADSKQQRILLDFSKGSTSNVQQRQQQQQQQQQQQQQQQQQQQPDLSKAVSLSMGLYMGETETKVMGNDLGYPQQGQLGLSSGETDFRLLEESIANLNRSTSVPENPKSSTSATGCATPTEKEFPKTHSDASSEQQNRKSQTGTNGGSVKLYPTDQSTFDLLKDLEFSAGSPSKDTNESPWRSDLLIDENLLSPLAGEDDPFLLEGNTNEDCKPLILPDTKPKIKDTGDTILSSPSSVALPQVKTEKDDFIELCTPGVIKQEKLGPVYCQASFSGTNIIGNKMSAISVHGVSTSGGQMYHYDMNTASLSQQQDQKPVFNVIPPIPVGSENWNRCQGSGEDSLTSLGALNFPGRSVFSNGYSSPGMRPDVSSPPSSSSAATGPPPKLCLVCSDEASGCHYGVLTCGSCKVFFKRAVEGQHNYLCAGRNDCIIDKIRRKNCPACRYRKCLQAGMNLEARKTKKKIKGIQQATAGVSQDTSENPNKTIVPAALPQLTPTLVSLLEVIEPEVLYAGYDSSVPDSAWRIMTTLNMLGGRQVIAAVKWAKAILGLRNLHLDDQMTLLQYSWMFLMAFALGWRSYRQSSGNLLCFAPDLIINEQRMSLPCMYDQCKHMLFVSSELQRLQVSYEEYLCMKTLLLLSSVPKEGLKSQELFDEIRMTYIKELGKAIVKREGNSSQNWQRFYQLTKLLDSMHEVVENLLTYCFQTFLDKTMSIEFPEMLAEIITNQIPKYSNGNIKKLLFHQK
- testName: Relative affinity of the bond, glucocorticoid receptor (tritiated dexamethasone displacement)
- Type: binding
- assaySetup: incubation 24 H at 0° C.; RAB=100(CH)/(CX)
experimentalEndpoint: Relative affinity of the bond (RAB), Glucocoticoid, 24 H

* CN(Cc1ccccc1)C(=O)CCCCCCCCCC[C@H]1C[C@]2(C)[C@@H](O)CC[C@H]2[C@@H]2CCC3=CC(=O)CCC3=C12 | 6
* CC(C)N(C)C(=O)CCCCCCCCCC[C@H]1C[C@]2(C)[C@@H](O)CC[C@H]2[C@@H]2CCc3cc(O)ccc3[C@@H]12 | 11
* CN(C)CCN(C)C(=O)CCCCCCCCCC[C@H]1C[C@]2(C)[C@@H](O)CC[C@H]2[C@@H]2CCC3=CC(=O)CCC3=C12 | 4.6
* CCCCN(C)C(=O)CCCCCCCCCC[C@H]1C[C@]2(C)[C@@H](O)CC[C@H]2[C@@H]2CCc3cc(O)ccc3[C@@H]12 | 7
* CC#C[C@]1(O)CC[C@H]2[C@@H]3CCC4=CC(=O)CCC4=C3[C@@H](CCCCCCCCCCC(=O)NCCCC)C[C@@]21C | 14
* CCCCN(C)C(=O)CCCCCCCCCCC[C@H]1C[C@]2(C)[C@@H](O)CC[C@H]2[C@@H]2CCc3cc(O)ccc3[C@@H]12 | 3
